system: catalytic domain of human Bub1 (amino acids 704-1085) (Homo sapiens, UniProt O43683)
Construct: catalytic domain of human Bub1 (amino acids 704-1085); His6 (N); made in house; host or cells: Hi5 insect cells
Sequence (O43683 704-1085): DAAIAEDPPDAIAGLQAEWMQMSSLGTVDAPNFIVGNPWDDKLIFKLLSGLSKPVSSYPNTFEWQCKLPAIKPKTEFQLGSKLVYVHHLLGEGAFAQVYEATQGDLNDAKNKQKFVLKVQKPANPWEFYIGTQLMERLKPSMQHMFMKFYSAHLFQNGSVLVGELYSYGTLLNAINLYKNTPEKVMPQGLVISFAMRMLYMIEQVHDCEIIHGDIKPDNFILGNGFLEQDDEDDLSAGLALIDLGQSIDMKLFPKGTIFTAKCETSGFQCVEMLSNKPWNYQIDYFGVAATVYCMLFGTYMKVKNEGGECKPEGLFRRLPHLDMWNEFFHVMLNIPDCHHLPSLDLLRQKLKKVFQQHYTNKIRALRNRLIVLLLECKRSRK
assay.info: Bub1 kinase assay (TR-FRET)
Type: biochemical
measurement.conditions: TR-FRET; ATP 10 μM, peptide substrate 1 μM; 60 min at 22° C.; average or median if tested more than once; read-out: Inhibition of Bub1 kinase IC50
Protocol: […] In a typical assay 11 different concentrations of each compound (0.1 nM, 0.33 nM, 1.1 nM, 3.8 nM, 13 nM, 44 nM, 0.15 μM, 0.51 μM, 1.7 μM, 5.9 μM and 20 μM) were tested in duplicate within the same microtiter plate. […] Subsequently, the amount of product was evaluated by measurement of the resonance energy transfer from the Eu-chelate-antibody complex recognizing the Phosphoserine residue to the streptavidin-XL665 bound to the biotin moiety of the peptide. […]
pIC50: −log10 of the molar value.
Decision: pIC50 >= 8 yields 1, all other cases yield 0.

Inquiry: Please check the record COC(=O)N1CC(=O)c2c([nH]c(-c3ccnc(NC(=O)[C@@H]4C[C@@H]4F)c3)c2Nc2ccccc2)C1 [Example 205] and state if its pIC50 is at or above 8.
Reply text: 1

Inquiry: Please check the record `COc1cc(C(=O)Nc2cc(-c3[nH]c4c(c3Nc3ccccc3)C(=O)CN(C(=O)SC(C)(C)C)C4)ccn2)ccc1F` and state if its pIC50 is at or above 8.
Reply text: 0

Inquiry: Please check the record `CC(C)(C)OC(=O)N1CC(=O)c2c([nH]c(-c3ccncc3OCC(F)(F)F)c2Nc2ccccc2)C1` and state if its pIC50 is at or above 8.
Reply text: 0

Inquiry: Please check the record `O=C1CN(S(=O)(=O)CCO)Cc2[nH]c(-c3ccncc3)c(Nc3ccccc3)c21` and state if its pIC50 is at or above 8.
Reply text: 1

Inquiry: Please check the record `O=C1CN(C(=O)C2CC2)Cc2[nH]c(-c3ccncc3)c(Nc3ccccc3)c21` and state if its pIC50 is at or above 8.
Reply text: 1

Inquiry: Please check the record `O=C1CNCc2[nH]c(-c3ccncc3)c(Nc3ccccc3)c21` and state if its pIC50 is at or above 8.
Reply text: 0

Inquiry: Please check the record `COC(=O)N1CC(=O)c2c([nH]c(-c3ccnc(NC(=O)C(C)(C)F)c3)c2Nc2ccccc2)C1` and state if its pIC50 is at or above 8.
Reply text: 0

Inquiry: Please check the record `COc1cc(C(=O)Nc2cc(-c3[nH]c4c(c3Nc3ccccc3)C(=O)COC4)ccn2)ccc1F` and state if its pIC50 is at or above 8.
Reply text: 0

Inquiry: Please check the record `CC(C)(C)OC(=O)N1CC(=O)c2c([nH]c(-c3ccncc3Br)c2Nc2ccccc2)C1` and state if its pIC50 is at or above 8.
Reply text: 0

----------
Please respond with reported IC50 for every item in the list.
system: catalytic domain of human Bub1 (amino acids 704-1085) (Homo sapiens, UniProt O43683)
Construct: catalytic domain of human Bub1 (amino acids 704-1085); His6 (N); made in house; host or cells: Hi5 insect cells
assay.info: Bub1 kinase assay (TR-FRET)
Type: biochemical
measurement.conditions: TR-FRET; ATP 10 μM, peptide substrate 1 μM; 60 min at 22° C.; average or median if tested more than once; read-out: Inhibition of Bub1 kinase IC50
Respond numerically; units are nM and should not be typed.

Inquiry: Please supply the value of reported IC50 for the item O=C1CN(C(=O)c2ccncc2)Cc2[nH]c(-c3ccncc3)c(Nc3ccccc3)c21 [Example 63]
Reply text: 9

Inquiry: Please supply the value of reported IC50 for the item COC(=O)N1CC(=O)c2c([nH]c(-c3ccnc(C)n3)c2Nc2ccccc2)C1 [Example 27]
Reply text: 59

Inquiry: Please supply the value of reported IC50 for the item O=C1CNCc2[nH]c(-c3ccnc(NC(=O)C4CC4(F)F)c3)c(Nc3ccccc3)c21 (racemic) [Example 137]
Reply text: 64

Inquiry: Please supply the value of reported IC50 for the item CC(C)(C)CC(=O)N1CC(=O)c2c([nH]c(-c3ccncc3)c2Nc2ccccc2)C1 [Example 58]
Reply text: 8

Inquiry: Please supply the value of reported IC50 for the item CC(=O)Nc1cc(-c2[nH]c3c(c2Nc2ccccc2)C(=O)CN(C(=O)c2cnc[nH]2)C3)ccn1 [Example 113]
Reply text: 34

Inquiry: Please supply the value of reported IC50 for the item CC(C)(C)OC(=O)N1CC(=O)c2c([nH]c(-c3ccnc(NC(=O)[C@@H]4C[C@@H]4F)c3)c2Nc2ccccc2)C1 (relative stereo) [Example 120]
Reply text: 9

Inquiry: Please supply the value of reported IC50 for the item CC(C)(C)OC(=O)N1CC(=O)c2c([nH]c(-c3ccncc3C(F)(F)F)c2Nc2ccccc2)C1 [Example 298]
Reply text: 896

Inquiry: Please supply the value of reported IC50 for the item CN(C)C(=O)N1CC(=O)c2c([nH]c(-c3ccnc(NC(=O)[C@@H]4C[C@@H]4F)c3)c2Nc2ccccc2)C1 [Example 207]
Reply text: 3

Inquiry: Please supply the value of reported IC50 for the item O=C1COCc2[nH]c(-c3ccncc3Cl)c(Nc3ccccc3)c21 [Example 42]
Reply text: 77

Inquiry: Please supply the value of reported IC50 for the item CCCN(C)C(=O)N1CC(=O)c2c([nH]c(-c3ccnc(NC(C)=O)c3)c2Nc2ccccc2)C1 [Example 187]
Reply text: 3

Inquiry: Please supply the value of reported IC50 for the item COc1ccc(C(=O)Nc2cc(-c3[nH]c4c(c3Nc3ccccc3)C(=O)CN(C(C)=O)C4)ccn2)cc1F [Example 285]
Reply text: 6

Inquiry: Please supply the value of reported IC50 for the item O=C1COCc2[nH]c(-c3ccncc3Br)c(Nc3ccccc3)c21 [Example 41]
Reply text: 233

Inquiry: Please supply the value of reported IC50 for the item COCCOc1cnccc1-c1[nH]c2c(c1Nc1ccccc1)C(=O)CNC2 [Example 226]
Reply text: 72

Inquiry: Please supply the value of reported IC50 for the item O=C1CN(C(=O)C2CC2)Cc2[nH]c(-c3ccnc(NC(=O)[C@@H]4C[C@@H]4F)c3)c(Nc3ccccc3)c21 [Example 212]
Reply text: 3

Inquiry: Please supply the value of reported IC50 for the item CC(C)(C)OC(=O)N1CC(=O)c2c([nH]c(-c3ccnc(NC(=O)C4(F)CC4)c3)c2Nc2ccccc2)C1 [Example 131]
Reply text: 23

----------
system: catalytic domain of human Bub1 (amino acids 704-1085) (Homo sapiens, UniProt O43683)
Construct: catalytic domain of human Bub1 (amino acids 704-1085); His6 (N); made in house; host or cells: Hi5 insect cells
assay.info: Bub1 kinase assay (TR-FRET)
Type: biochemical
measurement.conditions: TR-FRET; ATP 10 μM, peptide substrate 1 μM; 60 min at 22° C.; average or median if tested more than once; read-out: Inhibition of Bub1 kinase IC50
Please respond with reported log10(IC50) for every item in the list.
Heads up: the numbers are on a log10 scale; they represent IC50 in nM.

Inquiry: Please supply the value of reported log10(IC50) for the item `O=C(CC(F)(F)F)Nc1cc(-c2[nH]c3c(c2Nc2ccccc2)C(=O)COC3)ccn1`
Reply text: 1.90

Inquiry: Please supply the value of reported log10(IC50) for the item `O=C1CN(C(=O)CCO)Cc2[nH]c(-c3ccnc(NC(=O)[C@@H]4C[C@@H]4F)c3)c(Nc3ccccc3)c21`
Reply text: 0.90

Inquiry: Please supply the value of reported log10(IC50) for the item `CNS(=O)(=O)N1CC(=O)c2c([nH]c(-c3ccnc(NC(C)=O)c3)c2Nc2ccc(C)cc2)C1`
Reply text: 1.61

Inquiry: Please supply the value of reported log10(IC50) for the item `CC(=O)N1CC(=O)c2c([nH]c(-c3ccncc3OCC(F)(F)F)c2Nc2ccccc2)C1`
Reply text: 2.21

Inquiry: Please supply the value of reported log10(IC50) for the item `CS(=O)(=O)CC(=O)Nc1cc(-c2[nH]c3c(c2Nc2ccccc2)C(=O)COC3)ccn1`
Reply text: 2.06

Inquiry: Please supply the value of reported log10(IC50) for the item `CS(=O)(=O)CCNC(=O)N1CC(=O)c2c([nH]c(-c3ccncc3)c2Nc2ccccc2)C1`
Reply text: 1.49

Inquiry: Please supply the value of reported log10(IC50) for the item `CCNC(=O)N1CC(=O)c2c([nH]c(-c3ccncc3)c2Nc2ccccc2)C1`
Reply text: 0.78

Inquiry: Please supply the value of reported log10(IC50) for the item `CC(=O)N1CC(=O)c2c([nH]c(-c3ccncc3)c2Nc2ccccc2)C1`
Reply text: 0.60

Inquiry: Please supply the value of reported log10(IC50) for the item `CC(=O)Nc1cc(-c2[nH]c3c(c2Nc2ccccc2)C(=O)CN(S(=O)(=O)N(C)C)C3)ccn1`
Reply text: 0.60

Inquiry: Please supply the value of reported log10(IC50) for the item `O=C1CNCc2[nH]c(-c3ccncc3OCC3CC3)c(Nc3ccccc3)c21`
Reply text: 2.15

Inquiry: Please supply the value of reported log10(IC50) for the item `O=C1CN(S(=O)(=O)CCC(F)(F)F)Cc2[nH]c(-c3ccncc3)c(Nc3ccccc3)c21`
Reply text: 0.60

Inquiry: Please supply the value of reported log10(IC50) for the item `O=C1CNCc2[nH]c(-c3ccncc3OCC(F)F)c(Nc3ccccc3)c21`
Reply text: 2.35

Inquiry: Please supply the value of reported log10(IC50) for the item `CC(C)(O)CC(=O)N1CC(=O)c2c([nH]c(-c3ccncc3)c2Nc2ccccc2)C1`
Reply text: 0.90

Inquiry: Please supply the value of reported log10(IC50) for the item `COC(=O)Nc1cc(-c2[nH]c3c(c2Nc2ccccc2)C(=O)COC3)ccn1`
Reply text: 1.91

Inquiry: Please supply the value of reported log10(IC50) for the item `CC(=O)Nc1cc(-c2[nH]c3c(c2Nc2ccc(F)cc2)C(=O)CNC3)ccn1`
Reply text: 2.47

Inquiry: Please supply the value of reported log10(IC50) for the item `Nc1cc(-c2[nH]c3c(c2Nc2ccccc2)C(=O)COC3)ccn1`
Reply text: 2.70

Inquiry: Please supply the value of reported log10(IC50) for the item `Cc1nccc(-c2[nH]c3c(c2Nc2ccccc2)C(=O)COC3)n1`
Reply text: 3.08

Inquiry: Please supply the value of reported log10(IC50) for the item `CNS(=O)(=O)N1CC(=O)c2c([nH]c(-c3ccnc(NC(C)=O)c3)c2Nc2ccc(F)cc2)C1`
Reply text: 0.60

Inquiry: Please supply the value of reported log10(IC50) for the item `CC(=O)Nc1cc(-c2[nH]c3c(c2Nc2ccccc2)C(=O)CN(C(=O)N2CCN(C)CC2)C3)ccn1`
Reply text: 1.46

Inquiry: Please supply the value of reported log10(IC50) for the item `CN(C)CCOc1cnccc1-c1[nH]c2c(c1Nc1ccccc1)C(=O)CN(C(=O)OC(C)(C)C)C2`
Reply text: 0.85

Inquiry: Please supply the value of reported log10(IC50) for the item `O=C1CN(Cc2ccccc2)Cc2[nH]c(-c3ccncc3)c(Nc3ccccc3)c21`
Reply text: 1.83

Inquiry: Please supply the value of reported log10(IC50) for the item `CC(=O)Nc1cc(-c2[nH]c3c(c2Nc2ccccc2)C(=O)CN(S(=O)(=O)C(C)C)C3)ccn1`
Reply text: 0.48

Inquiry: Please supply the value of reported log10(IC50) for the item `COc1cc(C(=O)Nc2cc(-c3[nH]c4c(c3Nc3ccccc3)C(=O)CN(C(=O)N3C[C@@H](C)O[C@@H](C)C3)C4)ccn2)ccc1F`
Reply text: 2.55

Inquiry: Please supply the value of reported log10(IC50) for the item `CS(=O)(=O)N1CC(=O)c2c([nH]c(-c3ccnc(NC(=O)C4(F)CC4)c3)c2Nc2ccccc2)C1`
Reply text: 0.70

Inquiry: Please supply the value of reported log10(IC50) for the item `COc1cnccc1-c1[nH]c2c(c1Nc1ccccc1)C(=O)CN(S(C)(=O)=O)C2`
Reply text: 0.78

Inquiry: Please supply the value of reported log10(IC50) for the item `CN(C)CC(=O)Nc1cc(-c2[nH]c3c(c2Nc2ccccc2)C(=O)COC3)ccn1`
Reply text: 2.71

Inquiry: Please supply the value of reported log10(IC50) for the item `CC(C)(F)C(=O)Nc1cc(-c2[nH]c3c(c2Nc2ccccc2)C(=O)CN(S(=O)(=O)c2cnc[nH]2)C3)ccn1`
Reply text: 1.58

Inquiry: Please supply the value of reported log10(IC50) for the item CS(=O)(=O)N1CC(=O)c2c([nH]c(-c3ccnc(NC(=O)[C@H]4C[C@H]4F)c3)c2Nc2ccccc2)C1 (relative stereo)
Reply text: 0.60

Inquiry: Please supply the value of reported log10(IC50) for the item `CC(C)(C)C(=O)N1CC(=O)c2c([nH]c(-c3ccnc(NC(=O)[C@@H]4C[C@@H]4F)c3)c2Nc2ccccc2)C1`
Reply text: 0.30

Inquiry: Please supply the value of reported log10(IC50) for the item `CC(C)(F)C(=O)Nc1cc(-c2[nH]c3c(c2Nc2ccccc2)C(=O)CNC3)ccn1`
Reply text: 2.82

Inquiry: Please supply the value of reported log10(IC50) for the item `CC(=O)Nc1cc(-c2[nH]c3c(c2Nc2ccccc2)C(=O)CN(C(=O)SC(C)(C)C)C3)ccn1`
Reply text: 1.52
